Test system: Saccharomyces cerevisiae
Test: protein stability index of tFT-peptide fusion (C-terminal peptide) (PSI (0-1 scale)); higher = more stable (slower turnover)
Settings: genetic background: wild type; temperature: 30 C
Metric name: protein stability index

INSERT INTO measurements (ordered_residues, target_or_test_system, metric_name, result_value) VALUES
  ('GVVGCSCLGCGF', 'Saccharomyces cerevisiae', 'protein stability index', 0.717),
  ('RSHPSPPPVILY', 'Saccharomyces cerevisiae', 'protein stability index', 0.686),
  ('FLGQPLSFSHVL', 'Saccharomyces cerevisiae', 'protein stability index', 0.692),
  ('PLPPLPPTAPPP', 'Saccharomyces cerevisiae', 'protein stability index', 0.686),
  ('GRSAGGTGAPSR', 'Saccharomyces cerevisiae', 'protein stability index', 0.699),
  ('SDGEHIYPESYR', 'Saccharomyces cerevisiae', 'protein stability index', 0.695),
  ('RSGLHGSGRPGG', 'Saccharomyces cerevisiae', 'protein stability index', 0.715),
  ('VRSILEGRRGEK', 'Saccharomyces cerevisiae', 'protein stability index', 0.709),
  ('HAPSRAPFPTAS', 'Saccharomyces cerevisiae', 'protein stability index', 0.71);

----------
Test system: Saccharomyces cerevisiae
Test: protein stability index of tFT-peptide fusion (C-terminal peptide) (PSI (0-1 scale)); higher = more stable (slower turnover)
Details: genetic background: wild type; temperature: 30 C
Each entry below carries its reported protein stability index.
Metric name: protein stability index

INSERT INTO assay_data (ordered_residues, result_value) VALUES
  ('YYCLRVRTINRR', 0.703),
  ('SLPLPPPVRPLL', 0.689),
  ('DVGWRVFVFGGL', 0.704),
  ('ERNNTICREIIE', 0.686),
  ('SPSSLPPTLPTL', 0.711),
  ('GRVVGDGRSVGV', 0.683),
  ('GPGFGEFVWSLW', 0.692),
  ('FEVRLRCLGYSG', 0.718),
  ('PPPHVPPPPSSL', 0.711),
  ('RGGRGLAAGAWW', 0.703),
  ('GGEGMTCPGGGA', 0.693),
  ('LHPRPPLFLHPL', 0.692),
  ('KDKNPDARDDGG', 0.705),
  ('PRSPLSIFPSSL', 0.692),
  ('LSTPPLPPPPPP', 0.689),
  ('PPPDPPLHHNLP', 0.693),
  ('LCVWFGGLGLVG', 0.69),
  ('RNTKGTIKKKKE', 0.715);

----------
Tested on: Saccharomyces cerevisiae
Experiment: protein stability index of tFT-peptide fusion in deletion strain of DAS1 (PSI (0-1 scale)); higher = more stable (slower turnover)
Metric name: protein stability index

INSERT INTO measurements (ordered_residues, target_or_test_system, metric_name, result_value) VALUES
  ('PSLAASFARVVG', 'Saccharomyces cerevisiae', 'protein stability index', 0.684),
  ('TTSCGYKFRTNN', 'Saccharomyces cerevisiae', 'protein stability index', 0.677),
  ('CTSCFYKFRTNN', 'Saccharomyces cerevisiae', 'protein stability index', 0.677),
  ('PDKRPHLIKLLN', 'Saccharomyces cerevisiae', 'protein stability index', 0.678),
  ('RLIQPLPVQFDN', 'Saccharomyces cerevisiae', 'protein stability index', 0.624),
  ('CTSCGKKFRTNN', 'Saccharomyces cerevisiae', 'protein stability index', 0.688),
  ('RLIQPLPFQFLN', 'Saccharomyces cerevisiae', 'protein stability index', 0.624),
  ('RLIQPHPVQFLN', 'Saccharomyces cerevisiae', 'protein stability index', 0.776),
  ('LVVYLSCVACLN', 'Saccharomyces cerevisiae', 'protein stability index', 0.0375);

----------
Tested on: Saccharomyces cerevisiae
Assay: protein stability index of tFT-peptide fusion (C-terminal peptide) (PSI (0-1 scale)); higher = more stable (slower turnover)
Conditions: genetic background: wild type; temperature: 30 C
Classification field: MET = protein stability index at or over 0.7; NOT MET = protein stability index under 0.7.

INSERT INTO results (ordered_residues, group_label) VALUES
  ('TTSHFCVVLVSV', 'NOT MET'),
  ('VFALFRLSSLDK', 'NOT MET'),
  ('FGLLLVLASALG', 'NOT MET'),
  ('HYRSNFGRDSNL', 'MET'),
  ('VGVIGWGGLGVG', 'NOT MET'),
  ('PLLHPTGFMGFP', 'MET'),
  ('PPVWSSLPPPPF', 'MET'),
  ('FSGFRFFLLWPW', 'NOT MET'),
  ('PAPCPLFVPSPT', 'NOT MET'),
  ('GGLVVGCGGMWV', 'NOT MET'),
  ('RNRSNTQAKVIR', 'NOT MET'),
  ('GPSCSGLHAPTS', 'MET');

----------
Reported protein stability index values follow for various sequences
Tested on: Saccharomyces cerevisiae
Test: protein stability index of tFT-peptide fusion (C-terminal peptide) (PSI (0-1 scale)); higher = more stable (slower turnover)
Conditions: genetic background: wild type; temperature: 30 C
Metric name: protein stability index

INSERT INTO results (ordered_residues, result_value) VALUES
  ('PPRAPPPPVPPL', 0.598),
  ('WIDSGCALVEIA', 0.701),
  ('PLPLPLPQTLPP', 0.696),
  ('GSAGPWSFVGDP', 0.702),
  ('LVFYSSLPNFSR', 0.681),
  ('WASRSGPRVTLI', 0.71),
  ('ISMPECDIVEEI', 0.707),
  ('LAGGMTSRTVSI', 0.716),
  ('ALEAAWGGLGGS', 0.695),
  ('SVRLTYQNIIVN', 0.583),
  ('SRGLPAPASRYC', 0.713),
  ('PVWLLHIRPPIP', 0.681),
  ('WRCSAITASEYL', 0.686);

----------
System: Saccharomyces cerevisiae
Assay: protein stability index of tFT-peptide fusion in deletion strain of DAS1 (PSI (0-1 scale)); higher = more stable (slower turnover)
Metric name: protein stability index

INSERT INTO assay_data (ordered_residues, result_value) VALUES
  ('KKHKKGQKQKINH', 0.668),
  ('ARWRVGLWRGAF', 0.682),
  ('LKILRQKMNHQA', 0.629),
  ('PDKRNHLIKLDN', 0.613),
  ('PSLAASFRRVVG', 0.656),
  ('KKHKKGQKQKIND', 0.658);

----------
System: Saccharomyces cerevisiae
Experiment: protein stability index of tFT-peptide fusion (C-terminal peptide) (PSI (0-1 scale)); higher = more stable (slower turnover)
Details: genetic background: wild type; temperature: 30 C
Metric name: protein stability index

INSERT INTO results (ordered_residues, metric_name, result_value) VALUES
  ('GRQTEENRKRRV', 'protein stability index', 0.7),
  ('APPRLTTLSMNL', 'protein stability index', 0.696),
  ('STVGSKLCWESS', 'protein stability index', 0.682);
